target: SARS-CoV-2 Papain like protease (PLpro) (Severe acute respiratory syndrome coronavirus 2 (2019-nCoV) (SARS-CoV-2), UniProt P0DTD1); test: Papain Like Protease (PLpro) biochemical assay with profluorogenic substrate Z-RLRGG-AMC; conditions: SARS-CoV-2 PLpro 6.25 nM, 25 μM Z-RLRGG-AMC substrate, 60 minute reaction; read-out: IC50
pIC50: −log10 of the molar value.
Lab note: anything with pIC50 at or over 8 counts as condition met; the rest go in condition not met.

Quick check: does Cc1ccc(N2CCC3(CCCCN3)C2=O)cc1C(=O)N[C@H](C)c1cc(-c2cnn(C)c2)nc2ccccc12 (some centres unmarked) [Example 240] have pIC50 greater than or equal to 8?
condition not met

Quick check: does Cc1cc(COCc2cscn2)ccc1C(=O)NC1(c2cc(-c3cc(C(N)=O)n[nH]3)nc3ccccc23)CC1 [Example 349] have pIC50 greater than or equal to 8?
condition met

Quick check: does Cc1ccc(NC(=O)[C@H]2CCCCN2)cc1C(=O)N[C@H](C)c1cc(-c2cnn(C)c2)cc2ccccc12 (single isomer, unassigned) [Example 67] have pIC50 greater than or equal to 8?
condition not met

Quick check: does Cc1ccc(CN)cc1C(=O)N[C@H](C)c1cc(-c2cnn(C)c2)cc2ccccc12 (single isomer, unassigned) [Example 9] have pIC50 greater than or equal to 8?
condition not met

Quick check: does Cc1nc(CNC(=O)c2ccc(C(=O)N[C@H](C)c3cc(-c4cnn(C)c4)nc4ccccc34)c(C)c2)cs1 [Example 204] have pIC50 greater than or equal to 8?
condition not met

Quick check: does Cc1ccccc1C(=O)NC(C)c1cc(-c2cn(C)nc2C(F)(F)F)nc2ccccc12 (centres unmarked) [Example 132] have pIC50 greater than or equal to 8?
condition not met

Quick check: does CCN(C)C(=O)Cn1cc(-c2cc(C3(NC(=O)c4ccc(COCc5cscn5)cc4C)CC3)c3ccccc3n2)cn1 [Example 364] have pIC50 greater than or equal to 8?
condition met

Quick check: does COC(=O)c1c[nH]c(-c2cc(C(C)NC(=O)c3ccccc3C)c3ccccc3n2)c1 (centres unmarked) [Example 128] have pIC50 greater than or equal to 8?
condition not met

Quick check: does Cc1ccccc1C(=O)NC(C)c1cc(C2CCOCC2)nc2ccccc12 (stereo in doubt) [Example 155] have pIC50 greater than or equal to 8?
condition not met

Quick check: does Cc1cc(C(=O)NCc2ncc[nH]2)ccc1C(=O)N[C@H](C)c1cc(-c2cnn(C)c2)nc2ccccc12 [Example 245] have pIC50 greater than or equal to 8?
condition met

###

molecular target: SARS-CoV-2 Papain like protease (PLpro) (Severe acute respiratory syndrome coronavirus 2 (2019-nCoV) (SARS-CoV-2), UniProt P0DTD1); assay: Papain Like Protease (PLpro) biochemical assay with profluorogenic substrate Z-RLRGG-AMC; settings: SARS-CoV-2 PLpro 6.25 nM, 25 μM Z-RLRGG-AMC substrate, 60 minute reaction; read-out: IC50
Please provide measured pIC50 for the entries that follow.
// pIC50 here means minus log10 of the molar concentration (mol/L)

Determine its reported pIC50: Cc1ccccc1C(=O)NC(C)c1cc(-c2ccc(NS(C)(=O)=O)cc2)nc2ccccc12 (stereo not shown)
6.70

Determine its reported pIC50: Cc1ccccc1C(=O)N[C@H](C)c1cc(Nc2ccn(C)n2)nc2ccccc12
5.79

Determine its reported pIC50: Cc1ccc(CN)cc1C(=O)N[C@H](C)c1cc(-c2cc(C(=O)N(C)C)n(C)c2)nc2ccccc12
7.36

Determine its reported pIC50: Cc1ccccc1C(=O)NC(C)c1cc(NC2CCCOC2)nc2ccccc12 (stereo not shown)
6.04

Determine its reported pIC50: Cc1ccccc1C(=O)NC(C)c1cc(NCC(=O)N2CCOCC2)nc2ccccc12 (stereo not shown)
5.35

Determine its reported pIC50: COC[C@H](OCc1cocn1)c1ccc(C(=O)NC2(c3cc(-c4cnn(C)c4)cc4ncccc34)CC2)c(C)c1 (single isomer, unassigned) [Example 356]
8.70

###

biological target: SARS-CoV-2 Papain like protease (PLpro) (Severe acute respiratory syndrome coronavirus 2 (2019-nCoV) (SARS-CoV-2)); assay: Papain Like Protease (PLpro) biochemical assay with profluorogenic substrate Z-RLRGG-AMC; settings: SARS-CoV-2 PLpro 6.25 nM, 25 μM Z-RLRGG-AMC substrate, 60 minute reaction; read-out: IC50
So basically: is IC50 under 0.02 µM? Then 1 (yes). Not under? Then 0 (no).

In the record for Cc1ccccc1C(=O)NC(C)c1cc(-c2cnn(C)c2C)nc2ccccc12 (stereo not shown) , is IC50 less than 0.02 µM?
0 (no)

In the record for CCOC(=O)[C@H]1O[C@@H]1C(=O)NNC(=O)CCc1ccccc1C(=O)N[C@H](C)c1cc(-c2cnn(C)c2)nc2ccccc12 , is IC50 less than 0.02 µM?
1 (yes)

In the record for Cc1cc(COCc2cscn2)ccc1C(=O)NC1(c2cc(-c3cnn(C)c3)cc3nc(C(C)(C)O)ccc23)CC1 , is IC50 less than 0.02 µM?
1 (yes)

In the record for Cc1ccc(N2CCN(C)CC2)cc1C(=O)NC(C)c1cc(-c2cnn(C)c2)cc2ccccc12 (stereo not shown) , is IC50 less than 0.02 µM?
0 (no)

In the record for Cc1ccc(N2CC3CC2CN3)cc1C(=O)N[C@H](C)c1cc(-c2cnn(C)c2)nc2ccccc12 (stereo partly shown) , is IC50 less than 0.02 µM?
1 (yes)

In the record for Cc1cc(C(=O)NCc2ncoc2C)ccc1C(=O)N[C@H](C)c1cc(-c2cnn(C)c2)nc2ccccc12 , is IC50 less than 0.02 µM?
1 (yes)

In the record for COc1c(-c2cnn(C)c2)cc(C(C)NC(=O)c2cc(CN)ccc2C)c2ccccc12 (stereo not shown) , is IC50 less than 0.02 µM?
0 (no)

In the record for Cc1ccccc1C(=O)N[C@H](C)c1cc(-c2ccn(C)n2)nc2ccccc12 , is IC50 less than 0.02 µM?
0 (no)

In the record for Cc1cc(C(=O)NC2(c3cscn3)CC2)ccc1C(=O)N[C@H](C)c1cc(-c2cnn(C)c2)nc2ccccc12 , is IC50 less than 0.02 µM?
1 (yes)

In the record for Cc1cc(COCc2cscn2)ccc1C(=O)NC1(c2cc(-c3cnn(C)c3)nc3ccccc23)CC1 , is IC50 less than 0.02 µM?
1 (yes)

In the record for Cc1cc(CN(C)C(=O)c2cscn2)ccc1C(=O)N[C@H](C)c1cc(-c2cnn(C)c2)nc2ccccc12 , is IC50 less than 0.02 µM?
0 (no)

In the record for COC[C@H](OCc1cocn1)c1ccc(C(=O)NC2(c3cc(-c4cnn(C)c4)nc4ccccc34)CC2)c(C)c1 (single isomer, unassigned) , is IC50 less than 0.02 µM?
1 (yes)

In the record for Cc1ccccc1C(=O)NC(C)c1cc(-c2cn(C)nc2C)nc2ccccc12 (stereo not shown) , is IC50 less than 0.02 µM?
0 (no)

In the record for Cc1ccccc1C(=O)N[C@H](C)c1cc(-c2cnoc2)nc2ccccc12 , is IC50 less than 0.02 µM?
0 (no)

In the record for CCN(CCOC)c1cc(C(C)NC(=O)c2ccccc2C)c2ccccc2n1 (stereo not shown) , is IC50 less than 0.02 µM?
0 (no)

In the record for Cc1ccccc1C(=O)NC(C)c1cc(-c2cnn(CC(F)F)c2)nc2ccccc12 (stereo not shown) , is IC50 less than 0.02 µM?
0 (no)

###

molecular target: UniProt P0DTD1; assay: Papain Like Protease (PLpro) biochemical assay with profluorogenic substrate Z-RLRGG-AMC; conditions: SARS-CoV-2 PLpro 6.25 nM, 25 μM Z-RLRGG-AMC substrate, 60 minute reaction; read-out: IC50
So basically: is IC50 under 10 nM? Then met. Not under? Then not met.

In the record for COC[C@H](OCc1cscn1)c1ccc(C(=O)NC2(c3cc(-c4cnn(C)c4)cc4ncccc34)CC2)c(C)c1 (single isomer, unassigned) , is IC50 less than 10 nM?
met

In the record for Cc1cc(CNCc2cncn2C)ccc1C(=O)N[C@H](C)c1cc(-c2cnn(C)c2)nc2ccccc12 , is IC50 less than 10 nM?
not met

In the record for CO/C=C/C(=O)NNC(=O)CCc1ccccc1C(=O)N[C@H](C)c1cc(-c2cnn(C)c2)nc2ccccc12 , is IC50 less than 10 nM?
not met

In the record for Cc1ccc(N2CCN(C)CC2)cc1C(=O)NC1(c2cc(-c3ccc(C(=O)N(C)C)[nH]3)cc3ccccc23)CC1 , is IC50 less than 10 nM?
met

In the record for CNC(=O)c1c[nH]c(-c2cc([C@@H](C)NC(=O)c3cc(CN)ccc3C)c3ccccc3n2)c1 , is IC50 less than 10 nM?
not met

In the record for Cc1cc(C(C)OCc2nccn2C)ncc1C(=O)N[C@H](C)c1cc(-c2cnn(C)c2)nc2ccccc12 (some centres unmarked) , is IC50 less than 10 nM?
met

In the record for Cc1ccccc1C(=O)NC(C)c1cc(-c2[nH]ncc2C)nc2ccccc12 (centres unmarked) , is IC50 less than 10 nM?
not met

In the record for Cc1cc(COCc2cscn2)ccc1C(=O)NC1(c2cc(-c3cc(C(=O)N(C)C)n[nH]3)cc3ncccc23)CC1 , is IC50 less than 10 nM?
met

In the record for Cc1ccccc1C(=O)N[C@H](C)c1cc(OCCO)nc2ccccc12 , is IC50 less than 10 nM?
not met

In the record for Cc1cc(CN)ccc1C(=O)NC(C)c1cc(-c2cnn(C)c2)cc2ccccc12 (centres unmarked) , is IC50 less than 10 nM?
not met

In the record for Cc1cc(C(=O)NCc2cscn2)ccc1C(=O)NC1(c2cc(-c3cnn(C)c3)nc3ccccc23)CC1 , is IC50 less than 10 nM?
met

In the record for Cc1ccc(N2CC3CC2CN3C)cc1C(=O)N[C@H](C)c1cc(-c2cnn(C)c2)nc2ccccc12 (some centres unmarked) , is IC50 less than 10 nM?
not met

In the record for Cc1ccc(N(C)C(=O)[C@H]2CCCCN2)cc1C(=O)N[C@H](C)c1cc(-c2cnn(C)c2)nc2ccccc12 , is IC50 less than 10 nM?
not met

In the record for Cc1ccccc1C(=O)NC(C)c1cc(-c2cn(C(C)C)nc2C)nc2ccccc12 (centres unmarked) , is IC50 less than 10 nM?
not met

In the record for Cc1ccc(NC(=O)[C@H]2CCCCN2)cc1C(=O)N[C@H](C)c1cc(-c2cnn(C)c2)nc2ccccc12 , is IC50 less than 10 nM?
not met

In the record for Cc1ccc(CN)cc1C(=O)NC(C)c1cc(-c2cc(C(=O)N(C)C)c[nH]2)cc2ccccc12 (centres unmarked) , is IC50 less than 10 nM?
not met

In the record for COC[C@@H](OCc1cocn1)c1ccc(C(=O)NC2(c3cc(-c4cnn(C)c4)nc4ccccc34)CC2)c(C)c1 (single isomer, unassigned) , is IC50 less than 10 nM?
met

In the record for Cc1cc(CSCc2nccn2C)ccc1C(=O)N[C@H](C)c1cc(-c2cnn(C)c2)nc2ccccc12 , is IC50 less than 10 nM?
met

In the record for Cc1ccccc1C(=O)NC(C)c1cc(N2CCC(S(=O)(=O)N(C)C)CC2)nc2ccccc12 (centres unmarked) , is IC50 less than 10 nM?
not met

In the record for Cc1cc(COCc2cscn2)ccc1C(=O)NC1(c2cc(-c3cnn(C(C)(C)C(=O)N(C)C)c3)nc3ccccc23)CC1 , is IC50 less than 10 nM?
met

In the record for COCCn1nc(C)c(-c2cc(C(C)NC(=O)c3ccccc3C)c3ccccc3n2)c1C (centres unmarked) , is IC50 less than 10 nM?
not met

In the record for Cc1ccc(N2CCCC(N)C2=O)cc1C(=O)N[C@H](C)c1cc(-c2cnn(C)c2)nc2ccccc12 (some centres unmarked) , is IC50 less than 10 nM?
not met

In the record for Cc1ccc(NC(=O)[C@H]2CCCCN2)cc1C(=O)NC(C)c1cc(-c2cn[nH]c2)cc2ccccc12 (single isomer, unassigned) [Example 53] , is IC50 less than 10 nM?
not met

In the record for CCn1cc(-c2cc(C(C)NC(=O)c3ccccc3C)c3ccccc3n2)c(C)n1 (centres unmarked) , is IC50 less than 10 nM?
not met

In the record for Cc1cc(C(C)OCc2cscn2)ncc1C(=O)N[C@H](C)c1cc(-c2cnn(C)c2)nc2ccccc12 (some centres unmarked) , is IC50 less than 10 nM?
met

In the record for Cc1ccccc1C(=O)NC(C)c1cc(NCC2CCOCC2)nc2ccccc12 (centres unmarked) , is IC50 less than 10 nM?
not met

In the record for Cc1cc(COCc2cocn2)ccc1C(=O)NC1(c2cc(-c3cnn(C)c3)nc3ccccc23)CC1 , is IC50 less than 10 nM?
met

In the record for COC(=O)[C@H]1O[C@@H]1C(=O)NNC(=O)CCc1ccccc1C(=O)N[C@H](C)c1cc(-c2cnn(C)c2)nc2ccccc12 , is IC50 less than 10 nM?
met

In the record for Cc1cc(C(NCc2cscn2)C(F)(F)F)ccc1C(=O)N[C@H](C)c1cc(-c2cnn(C)c2)nc2ccccc12 (some centres unmarked) , is IC50 less than 10 nM?
met
